Provide the reported growth inhibition of each item.
Experiment: NCI Yeast Anticancer Drug Screen. Data for the mlh1 rad18 strain (AID 175)
Settings: S. cerevisiae mlh1 rad18 strain growth inhibition; at 50.0 µM; stronger effect = higher value
Compounds without any hit were thinned out: in the full panel of roughly 79,000, 15% have a hit.
Answers are plain numbers, in %.

1. CCN(CC)C(=O)c1ccc(C(C)C)cc1	25.8

For each of the molecules below, state growth inhibition.
1. OC1C2CC3C(C2)C13 (configuration not stated)
2. CC(CO)CCNc1ncnc2c1ncn2CCC(=O)O (configuration not stated)

Result:
1. -25.8
2. -0.95

For each of the molecules below, state growth inhibition.
1. COc1ccccc1N=Nc1c(-c2ccccc2)nn(C(N)=S)c1-c1ccccc1
2. CCOC(=O)NC(NC(=O)OCC)c1ccc(OC)cc1
3. CC(C)c1ccc(O)c(C(C)(C)C)c1
4. OC1(c2ccccc2)C=C(c2ccccc2)C=C(c2ccccc2)O1 (configuration not stated)

Result:
1. 6.6
2. -10.1
3. -14.6
4. -2.55

These measurements were taken from PubChem BioAssay (NCI).
